Target: T1, human PRLR on cells (endogenous on T47D, T47D#11, MCF7); introduced in HEK293/hPRLR/STAT5-Luc, 293/hPRLR, … (human, UniProt P16471 25-622)
T1 construct: no tag is stated for these lines; also called prolactin receptor
T1 sequence: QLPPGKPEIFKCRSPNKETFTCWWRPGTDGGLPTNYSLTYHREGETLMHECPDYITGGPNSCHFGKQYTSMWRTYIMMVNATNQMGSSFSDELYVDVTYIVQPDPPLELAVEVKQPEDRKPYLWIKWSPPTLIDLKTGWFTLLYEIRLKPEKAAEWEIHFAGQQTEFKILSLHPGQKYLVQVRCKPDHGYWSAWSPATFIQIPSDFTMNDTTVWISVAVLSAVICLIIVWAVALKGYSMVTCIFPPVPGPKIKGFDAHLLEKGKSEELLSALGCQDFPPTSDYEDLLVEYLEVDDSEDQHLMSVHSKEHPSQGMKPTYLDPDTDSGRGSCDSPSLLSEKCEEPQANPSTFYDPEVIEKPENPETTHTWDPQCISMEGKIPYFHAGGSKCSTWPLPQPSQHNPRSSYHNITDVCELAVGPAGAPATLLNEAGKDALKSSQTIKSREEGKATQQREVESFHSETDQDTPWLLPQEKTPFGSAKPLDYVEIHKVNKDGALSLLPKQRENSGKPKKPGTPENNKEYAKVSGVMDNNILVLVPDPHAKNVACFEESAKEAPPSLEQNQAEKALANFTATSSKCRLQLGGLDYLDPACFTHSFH
Experiment: imaging of alexa488 intensity on T47D cells
Protocol: Briefly, 20,000 T47D cells were seeded in collagen coated 96 well plates. […] Cells were then incubated with alexa488 conjugated anti-hFc Fab secondary antibodies for 30 minutes on ice followed by two additional PBS washes. Antibodies were allowed to internalize for 1 h at 37° C. in internalization buffer (PBS+2% FBS) or remained at 4° C. […] (Internalization) were determined via Columbus image analysis software (PerkinElmer).
Recorded % Total Binding relative to Control I, one value per entry.

>  <Binder>
H1H6804P (antibody, human IgG1, V domains shown, human IgG1 Fc (H1H)) VH: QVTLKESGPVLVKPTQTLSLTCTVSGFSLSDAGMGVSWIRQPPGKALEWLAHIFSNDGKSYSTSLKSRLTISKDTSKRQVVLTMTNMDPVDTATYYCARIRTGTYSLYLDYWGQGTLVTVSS VL: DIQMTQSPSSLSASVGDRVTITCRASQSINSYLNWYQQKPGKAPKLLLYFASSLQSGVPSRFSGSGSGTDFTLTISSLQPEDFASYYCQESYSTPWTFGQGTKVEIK

>  <% Total Binding relative to Control I (%)>
150

$$$$
>  <Binder>
H1H6960N (antibody, human IgG1, V domains shown, also called H2M6960N) VH: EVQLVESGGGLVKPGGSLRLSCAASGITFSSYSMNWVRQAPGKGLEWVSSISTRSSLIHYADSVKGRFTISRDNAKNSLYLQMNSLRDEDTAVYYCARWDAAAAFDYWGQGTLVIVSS VL: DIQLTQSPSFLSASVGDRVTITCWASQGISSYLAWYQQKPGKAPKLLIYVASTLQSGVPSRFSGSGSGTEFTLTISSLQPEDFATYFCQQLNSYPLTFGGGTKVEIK

>  <% Total Binding relative to Control I (%)>
89.7

$$$$
>  <Binder>
H1H6800P (antibody, human IgG1, V domains shown, human IgG1 Fc (H1H)) VH: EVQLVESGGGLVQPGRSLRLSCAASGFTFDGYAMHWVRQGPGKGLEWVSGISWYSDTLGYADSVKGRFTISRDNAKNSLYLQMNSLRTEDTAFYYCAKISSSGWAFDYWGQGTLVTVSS VL: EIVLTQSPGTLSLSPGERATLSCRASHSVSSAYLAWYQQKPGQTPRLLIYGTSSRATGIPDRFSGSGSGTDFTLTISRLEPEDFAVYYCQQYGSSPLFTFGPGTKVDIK

>  <% Total Binding relative to Control I (%)>
187

$$$$
>  <Binder>
H1H6774P (antibody, human IgG1, V domains shown, human IgG1 Fc (H1H)) VH: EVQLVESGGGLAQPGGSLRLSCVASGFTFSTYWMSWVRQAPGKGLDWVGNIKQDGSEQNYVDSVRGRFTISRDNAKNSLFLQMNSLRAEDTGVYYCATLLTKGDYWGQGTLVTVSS VL: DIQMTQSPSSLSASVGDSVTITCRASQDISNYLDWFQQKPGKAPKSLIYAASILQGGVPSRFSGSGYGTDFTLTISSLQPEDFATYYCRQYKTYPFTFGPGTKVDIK

>  <% Total Binding relative to Control I (%)>
174

$$$$
>  <Binder>
H1H6803P (antibody, human IgG1, V domains shown, human IgG1 Fc (H1H)) VH: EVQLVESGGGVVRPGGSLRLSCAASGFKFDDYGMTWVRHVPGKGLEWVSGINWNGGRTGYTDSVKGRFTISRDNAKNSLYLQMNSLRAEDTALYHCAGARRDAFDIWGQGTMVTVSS VL: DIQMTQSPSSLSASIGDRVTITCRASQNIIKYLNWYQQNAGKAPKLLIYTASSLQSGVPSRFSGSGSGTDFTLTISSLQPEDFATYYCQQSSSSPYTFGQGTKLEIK

>  <% Total Binding relative to Control I (%)>
206

$$$$

All figures here come from patent US20180185504A1.
